Data provenance: paper PMC4336329

- ASSAYED_TARGET: human ether-à-go-go-related gene (hERG) potassium channel (human, UniProt Q12809)
- Sequence (Q12809 whole entry, looked up): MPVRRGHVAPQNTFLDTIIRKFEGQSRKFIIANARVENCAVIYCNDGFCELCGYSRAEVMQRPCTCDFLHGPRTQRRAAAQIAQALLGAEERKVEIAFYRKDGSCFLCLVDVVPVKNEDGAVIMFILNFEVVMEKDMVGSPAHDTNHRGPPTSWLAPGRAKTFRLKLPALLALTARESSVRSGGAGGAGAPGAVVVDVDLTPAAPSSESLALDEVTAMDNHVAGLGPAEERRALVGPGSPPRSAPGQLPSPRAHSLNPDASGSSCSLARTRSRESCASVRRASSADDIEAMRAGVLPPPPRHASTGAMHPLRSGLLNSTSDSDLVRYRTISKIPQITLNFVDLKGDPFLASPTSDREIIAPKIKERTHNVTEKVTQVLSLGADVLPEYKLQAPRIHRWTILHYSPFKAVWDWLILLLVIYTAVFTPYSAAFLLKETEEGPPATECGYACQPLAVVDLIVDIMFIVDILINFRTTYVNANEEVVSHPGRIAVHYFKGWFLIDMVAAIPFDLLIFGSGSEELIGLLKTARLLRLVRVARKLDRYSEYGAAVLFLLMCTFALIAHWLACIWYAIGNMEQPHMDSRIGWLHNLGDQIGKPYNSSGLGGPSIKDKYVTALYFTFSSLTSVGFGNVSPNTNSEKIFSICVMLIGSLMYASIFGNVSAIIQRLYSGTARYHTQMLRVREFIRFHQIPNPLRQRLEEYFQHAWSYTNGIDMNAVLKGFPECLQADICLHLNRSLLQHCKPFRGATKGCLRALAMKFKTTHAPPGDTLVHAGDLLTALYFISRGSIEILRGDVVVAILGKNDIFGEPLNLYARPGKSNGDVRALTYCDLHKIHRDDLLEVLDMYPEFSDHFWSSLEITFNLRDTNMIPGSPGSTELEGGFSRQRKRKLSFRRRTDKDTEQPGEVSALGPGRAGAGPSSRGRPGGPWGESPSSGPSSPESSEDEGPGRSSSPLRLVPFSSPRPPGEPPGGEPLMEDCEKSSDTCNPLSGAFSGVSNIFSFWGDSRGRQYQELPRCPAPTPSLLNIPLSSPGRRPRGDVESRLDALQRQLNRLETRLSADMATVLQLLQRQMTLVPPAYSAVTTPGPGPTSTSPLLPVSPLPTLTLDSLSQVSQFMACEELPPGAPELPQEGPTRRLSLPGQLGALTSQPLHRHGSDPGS
- TEST_NAME: primary screen, population patch clamp on CHO cells stably expressing hERG; higher = less effect of the substance
About 2,200 (0.71%) of roughly 310,000 compounds showed an effect of 50% or more. Effects have a minus sign here. The sample holds strong results, similar compounds and a random draw of the others, so the mix is not that of the screen.
QUANTITY_MEASURED: hERG current change (%, negative = inhibition) at 1uM (%)

INSERT INTO measurements (molecule, assayed_target, numeric_readout) VALUES
  ('COC(=O)c1cc(S(=O)(=O)NCC2CCN(Cc3ccc(Cl)cc3)CC2)c[nH]1', 'human ether-à-go-go-related gene (hERG) potassium channel (human, UniProt Q12809)', -59.6),
  ('O=C(CCn1nnc2ccccc2c1=O)N[C@@H](Cc1c[nH]c2ccccc12)C(=O)O', 'human ether-à-go-go-related gene (hERG) potassium channel (human, UniProt Q12809)', 11.6),
  ('C=CCOc1cccc(C(=O)N2CCC(CCC(=O)NC3CC3)CC2)c1', 'human ether-à-go-go-related gene (hERG) potassium channel (human, UniProt Q12809)', 12.6),
  ('Cc1ccc(-c2csc(N3CCC(NS(=O)(=O)c4ccc5c(c4)OCCO5)CC3)n2)cc1', 'human ether-à-go-go-related gene (hERG) potassium channel (human, UniProt Q12809)', 9.83),
  ('COC(=O)c1cc(S(=O)(=O)NCC2CCN(Cc3cccc(F)c3)CC2)c[nH]1', 'human ether-à-go-go-related gene (hERG) potassium channel (human, UniProt Q12809)', 2.87),
  ('COC(=O)c1cc(S(=O)(=O)NCC2CCN(Cc3cc(C)ccc3C)CC2)c[nH]1', 'human ether-à-go-go-related gene (hERG) potassium channel (human, UniProt Q12809)', 2.48),
  ('O=C(N/N=C/c1ccccc1)C1CCCN1C(=O)c1cc([N+](=O)[O-])cc([N+](=O)[O-])c1 (stereo not drawn)', 'human ether-à-go-go-related gene (hERG) potassium channel (human, UniProt Q12809)', 12.4),
  ('COC(=O)c1cc(S(=O)(=O)NCC2CCN(Cc3ccc(C)cc3)CC2)c[nH]1', 'human ether-à-go-go-related gene (hERG) potassium channel (human, UniProt Q12809)', -63),
  ('COC(=O)c1cc(S(=O)(=O)NCC2CCN(Cc3ccc(F)cc3)CC2)c[nH]1', 'human ether-à-go-go-related gene (hERG) potassium channel (human, UniProt Q12809)', 7.24);

----------
- ASSAYED_TARGET: human ether-à-go-go-related gene (hERG) potassium channel (human, UniProt Q12809)
- TEST_NAME: primary screen, population patch clamp on CHO cells stably expressing hERG; higher = less effect of the substance
- Excerpt: Briefly, Chinese hamster ovary (CHO) cells stably expressing the hERG channel were dislodged from tissue culture flasks and dispensed into PPC plates. […] Small molecule effects on hERG current density were quantified by […].
The whole screen tested about 310,000 compounds, of which about 2,200 (0.71%) showed an effect of 50% or more. Effects have a minus sign here. The sample holds strong results, similar compounds and a random draw of the others, so the mix is not that of the screen.
# binarize hERG current change (%, negative = inhibition) at 1uM: threshold -60% inclusive, high side Fulfilled, low side Not fulfilled

INSERT INTO measurements (input_smiles, assayed_target, category_label) VALUES
  ('O=C(Nc1ccnn1C1CCN(C/C=C/c2ccccc2)CC1)c1ccccc1', 'human ether-à-go-go-related gene (hERG) potassium channel (human, UniProt Q12809)', 'Not fulfilled'),
  ('O=C(Nc1ccnn1C1CCN(Cc2ccc(CO)o2)CC1)c1ccccc1Cl', 'human ether-à-go-go-related gene (hERG) potassium channel (human, UniProt Q12809)', 'Fulfilled'),
  ('O=C(CCc1ccccc1)Nc1ccnn1C1CCN(C/C=C/c2ccccc2)CC1', 'human ether-à-go-go-related gene (hERG) potassium channel (human, UniProt Q12809)', 'Fulfilled'),
  ('CC(C)=CCN1CCC(n2nccc2NC(=O)c2ccccc2Cl)CC1', 'human ether-à-go-go-related gene (hERG) potassium channel (human, UniProt Q12809)', 'Fulfilled'),
  ('O=C(Nc1ccnn1C1CCN(C/C=C/c2ccccc2)CC1)c1ccccc1Cl', 'human ether-à-go-go-related gene (hERG) potassium channel (human, UniProt Q12809)', 'Not fulfilled');
